Where do these numbers come from? They come from patent US20170145086A1.

Reported IC50 values follow for various binders
Molecular target: T1, HA-GCN4 hAPRIL (amino acid residues 105-250) (human, UniProt O75888 105-250)
T1 construct: Bought (R&D Systems); also called HA-tagged GCN4 human APRIL; HA-GCN4-huAPRIL; not shown: N-terminal HA tag; GCN4 isoleucine zipper oligomerization domain
T1 sequence: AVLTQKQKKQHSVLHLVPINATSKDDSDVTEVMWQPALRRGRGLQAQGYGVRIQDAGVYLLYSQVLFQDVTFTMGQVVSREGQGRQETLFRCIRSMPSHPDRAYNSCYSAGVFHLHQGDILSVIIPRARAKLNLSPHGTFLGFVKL
Experiment: blocking ELISA; blocked: human APRIL binding to TACI-Fc
Answer with a number only, understood to be in nM.

[[record]]
binder = "2419-1306 (antibody, V domains shown) VH: QVQLVQSGAEVKKPGASVKVSCKASGYTFTDYTIHWVRQATGQGLEWMGWIYPLRGSINYAQKFQGRVTMTANKSISTVYMELSSLRSEDTAVYFCARHGAYYSNAFDYWGQGTLVTVSS VL: EIVMTQSPATLSVSPGERATLSCRASESVDNDGIRFLHWYQQKPGQAPRLLIYRASTRATGIPARFSGSGSRTEFTLTISSLQSEDFAVYYCQQSNKDPYTFGGGTKVEIK"
uom = "nM"
measured_result = 0.28


From here, focus on the item given below.
Record 2419-1310 (antibody, V domains shown) VH: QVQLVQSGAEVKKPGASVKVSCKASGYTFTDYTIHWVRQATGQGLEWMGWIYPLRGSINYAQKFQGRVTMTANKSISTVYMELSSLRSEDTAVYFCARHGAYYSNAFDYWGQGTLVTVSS VL: DIVMTQSPDSLAVSLGERATINCKSSQSVDNDGIRFLHWYQQKPGQPPKLLIYRASTRESGVPDRFSGSGSGTDFTLTISSLQAEDVAVYYCQQSNKDPYTFGGGTKVEIK . Reported IC50: 0.3
